All figures here come from ChEMBL document CHEMBL3804773.

tested on: HeLa; experiment: Cytotoxicity against human HeLa cells assessed as reduction in cell viability after 72 hrs by Z2 coulter counter method; type: functional, cell-based
measured.endpoint: pIC50
Convention used: pIC50 is expressed as -log10 of the molar concentration.

Task: For the compound O=C(Nc1ccc(Nc2ccc(OC3CCNCC3)cc2)cc1)c1cccc(-n2nc(C(=O)Nc3ccc(Nc4ccc(OC5CCNCC5)cc4)cc3)c3c2C(=O)NCC3)c1 , give its reported pIC50.
Result: 4.80

* * *

system: MDA-MB-231; test: Cytotoxicity against human MDA-MB-231 cells assessed as reduction in cell viability after 48 hrs by Z2 coulter counter method; format: functional, cell-based; settings: MDA-MB-231, 48 h
measured.endpoint: IC50 (µM)
Kindly answer with a numeric value in µM, unit omitted.

Task: Please look at O=C(Nc1ccc(Nc2ccc(OC3CCNCC3)cc2)cc1)c1cccc(-n2nc(C(=O)Nc3ccc(Nc4ccc(OC5CCNCC5)cc4)cc3)c3c2C(=O)NCC3)c1 and tell me its recorded IC50 on MDA-MB-231.
Result: 42.6

* * *

tested on: MCF7; assay: Cytotoxicity against human MCF7 cells assessed as reduction in cell viability after 24 hrs by Z2 coulter counter method; format: functional, cell-based; settings: MCF7, 24 h
measured.endpoint: IC50 (µM)
Express the result in µM but write the number alone.

Task: Supply recorded IC50 for O=C(Nc1ccc(Nc2ccc(OC3CCNCC3)cc2)cc1)c1cccc(-n2nc(C(=O)Nc3ccc(Nc4ccc(OC5CCNCC5)cc4)cc3)c3c2C(=O)NCC3)c1 here.
Result: 78.3

* * *

test system: MDA-MB-231; experiment: Cytotoxicity against human MDA-MB-231 cells assessed as reduction in cell viability after 72 hrs by Z2 coulter counter method; format: functional, cell-based; settings: MDA-MB-231, 72 h
measured.endpoint: pIC50
Conceptually, pIC50 converts a concentration in mol/L into minus its log10.

Task: Write pIC50 of O=C(Nc1ccc(Nc2ccc(OC3CCNCC3)cc2)cc1)c1cccc(-n2nc(C(=O)Nc3ccc(Nc4ccc(OC5CCNCC5)cc4)cc3)c3c2C(=O)NCC3)c1 ; system used: MDA-MB-231
Result: 4.54

* * *

test: Cytotoxicity against human U87MG cells assessed as reduction in cell viability after 72 hrs by Z2 coulter counter method; format: functional, cell-based, U-87MG ATCC; conditions: U-87 MG
This section presents compounds with their documented pIC50 values.
Kindly note that pIC50 refers to -log10 of the concentration in mol/L and answer with the value alone.

Sample answers from the record:
compound="Cn1c(=O)n(-c2ccc(C(C)(C)C#N)cc2)c2c3cc(-c4cnc5ccccc5c4)ccc3ncc21 [DACTOLISIB]" experimental_result=6.80
compound="O=c1[nH]cc(F)c(=O)[nH]1 [FLUOROURACIL]" experimental_result=4.74

Task: Identify the reported pIC50 for the following entry. O=C(Nc1ccc(Nc2ccc(OC3CCNCC3)cc2)cc1)c1cccc(-n2nc(C(=O)Nc3ccc(Nc4ccc(OC5CCNCC5)cc4)cc3)c3c2C(=O)NCC3)c1
Result: 4.47
